Values from paper PMC9610793

assay: Cytotoxic assay (XTT cell viability); format: cell-based; settings: human, uninfected Huh-7 cells, read-out: CC50 (concentration of the compound causing a 50% growth inhibition of uninfected Huh-7 cells)
RESULT_TYPE: CC50 at 72 h (µM)
Numbers only, in µM.

Record excerpt, results attached:
MOLECULE	CC50 at 72 h (µM)
COc1cc2c3c(c1OC)C1(C=CC(=O)C=C1)C[C@H]3N([C@@H]1OC(=O)C=C1CC[C@@]1(C)[C@H](C)CC[C@@]3(C)C(C)=CCC[C@H]13)CC2	94.5
COc1cc2c(cc1O)CC1c3c(cc(OC)c(OC)c3-2)CCN1C1OC(=O)C=C1CCC1(C)C(C)CCC2(C)C(C)=CCCC21 (stereo not shown)	69.1

--- query ---
Return reported CC50 at 72 h; argument: `COc1c2c3c(c(OC)c1OC)-c1ccccc1C[C@H]3N([C@@H]1OC(=O)C=C1CC[C@@]1(C)[C@H](C)CC[C@@]3(C)C(C)=CCC[C@H]13)CC2`
50.4
